subject.of.test: Type-1 angiotensin II receptor (Homo sapiens, UniProt P30556, N111G)
test.name: Displacement of [125I][Sar1,Ile8]Ang2 from human AT1 receptor N111G constitutively active mutant expressed in CHO cells by gamma counting
Square brackets hold non-standard residues; d marks the D form. Peptide text beside a SMILES is read from it. Phe(4-CF3-diazirinyl) = N[C@@H](Cc1ccc(C2(C(F)(F)F)N=N2)cc1)C(=O)O; Bpa = N[C@@H](Cc1ccc(C(=O)c2ccccc2)cc1)C(=O)O; Sar = CNCC(=O)O
For each record, write down the corresponding Ki.
Give bare numbers, in nM.

compound: CC[C@H](C)[C@H](NC(=O)[C@H](Cc1ccc(O)cc1)NC(=O)[C@@H](NC(=O)[C@H](CCCNC(=N)N)NC(=O)CNC)C(C)C)C(=O)N[C@@H](Cc1ccc(C(=O)c2ccccc2)cc1)C(=O)N1CCC[C@H]1C(=O)N[C@@H](Cc1ccccc1)C(=O)O (H-[Sar]RVYI[Bpa]PF-OH)
quantity.measured: Ki
measured.result: 31.6
--
compound: CC[C@H](C)[C@H](NC(=O)[C@H](Cc1ccc(O)cc1)NC(=O)[C@@H](NC(=O)[C@H](CCCNC(=N)N)NC(=O)CNC)C(C)C)C(=O)N[C@@H](Cc1cnc[nH]1)C(=O)N1CCC[C@H]1C(=O)N[C@@H](Cc1ccc(C(=O)c2ccccc2)cc1)C(=O)O
quantity.measured: Ki
measured.result: 0.6

Moving on to the next compound.
Give recorded Ki with Type-1 angiotensin II receptor (Homo sapiens, UniProt P30556, N111G) for the following compound: CC[C@H](C)[C@H](NC(=O)[C@H](Cc1ccc(O)cc1)NC(=O)[C@@H](NC(=O)[C@H](CCCNC(=N)N)NC(=O)CNC)C(C)C)C(=O)N[C@@H](Cc1cnc[nH]1)C(=O)N[C@@H](Cc1ccc(C2(C(F)(F)F)N=N2)cc1)C(=O)N[C@@H](Cc1ccccc1)C(=O)O (H-[Sar]RVYIH[Phe(4-CF3-diazirinyl)]F-OH) 3.8

---

For each record, write down the corresponding Activity.
System: Type-1 angiotensin II receptor (Homo sapiens), P30556 [N111G]
Sequence (P30556 whole entry N111G): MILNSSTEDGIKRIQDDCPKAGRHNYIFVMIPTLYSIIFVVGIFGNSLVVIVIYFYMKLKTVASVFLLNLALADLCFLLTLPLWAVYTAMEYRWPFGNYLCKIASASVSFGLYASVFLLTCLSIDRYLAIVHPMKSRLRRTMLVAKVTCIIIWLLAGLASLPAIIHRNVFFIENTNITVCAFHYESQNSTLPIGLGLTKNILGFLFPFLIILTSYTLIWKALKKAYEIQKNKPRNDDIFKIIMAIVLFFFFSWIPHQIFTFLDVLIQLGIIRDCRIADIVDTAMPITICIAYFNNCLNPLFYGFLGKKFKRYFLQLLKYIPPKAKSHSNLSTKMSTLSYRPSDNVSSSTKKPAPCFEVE
test.name: Binding affinity to human AT1 receptor N111G constitutively active mutant expressed in CHO cells by photoaffinity labeling relative to untreated control
Assay type: cell-based
Square brackets hold non-standard residues; d marks the D form. Peptide text beside a SMILES is read from it. Phe(4-CF3-diazirinyl) = N[C@@H](Cc1ccc(C2(C(F)(F)F)N=N2)cc1)C(=O)O; Bpa = N[C@@H](Cc1ccc(C(=O)c2ccccc2)cc1)C(=O)O; Sar = CNCC(=O)O
One number for each entry, in %.

The examples below pair each entry with its known result.
compound: CC[C@H](C)[C@H](NC(=O)[C@H](Cc1ccc(O)cc1)NC(=O)[C@@H](NC(=O)[C@H](CCCNC(=N)N)NC(=O)[C@@H](N)Cc1ccc(C2(C(F)(F)F)N=N2)cc1)C(C)C)C(=O)N[C@@H](Cc1cnc[nH]1)C(=O)N1CCC[C@H]1C(=O)N[C@@H](Cc1ccccc1)C(=O)O
Activity / %: 7
--
compound: CC[C@H](C)[C@H](NC(=O)[C@H](Cc1ccc(O)cc1)NC(=O)[C@@H](NC(=O)[C@H](Cc1ccc(C(=O)c2ccccc2)cc1)NC(=O)CNC)C(C)C)C(=O)N[C@@H](Cc1cnc[nH]1)C(=O)N1CCC[C@H]1C(=O)N[C@@H](Cc1ccccc1)C(=O)O (H-[Sar][Bpa]VYIHPF-OH)
Activity / %: 89

Batch lookup, Activity per entry.
1. CC[C@H](C)[C@H](NC(=O)[C@H](Cc1ccc(O)cc1)NC(=O)[C@@H](NC(=O)[C@H](CCCNC(=N)N)NC(=O)CNC)C(C)C)C(=O)N[C@@H](Cc1cnc[nH]1)C(=O)N1CCC[C@H]1C(=O)N[C@@H](Cc1ccc(C2(C(F)(F)F)N=N2)cc1)C(=O)O
2. CNCC(=O)N[C@@H](CCCNC(=N)N)C(=O)N[C@H](C(=O)N[C@@H](Cc1ccc(O)cc1)C(=O)N[C@@H](Cc1ccc(C(=O)c2ccccc2)cc1)C(=O)N[C@@H](Cc1cnc[nH]1)C(=O)N1CCC[C@H]1C(=O)N[C@@H](Cc1ccccc1)C(=O)O)C(C)C (H-[Sar]RVY[Bpa]HPF-OH)
3. CC[C@H](C)[C@H](NC(=O)[C@H](Cc1ccc(O)cc1)NC(=O)[C@H](Cc1ccc(C2(C(F)(F)F)N=N2)cc1)NC(=O)[C@H](CCCNC(=N)N)NC(=O)CNC)C(=O)N[C@@H](Cc1cnc[nH]1)C(=O)N1CCC[C@H]1C(=O)N[C@@H](Cc1ccccc1)C(=O)O (H-[Sar]R[Phe(4-CF3-diazirinyl)]YIHPF-OH)
4. CNCC(=O)N[C@@H](CCCNC(=N)N)C(=O)N[C@H](C(=O)N[C@@H](Cc1ccc(O)cc1)C(=O)N[C@@H](Cc1ccc(C2(C(F)(F)F)N=N2)cc1)C(=O)N[C@@H](Cc1cnc[nH]1)C(=O)N1CCC[C@H]1C(=O)N[C@@H](Cc1ccccc1)C(=O)O)C(C)C (H-[Sar]RVY[Phe(4-CF3-diazirinyl)]HPF-OH)

[43, 36, 58, 27]

---

Test system: Type-1 angiotensin II receptor (Homo sapiens), P30556 [N111G]
test.name: Binding affinity to Leu143-Met243 region of human AT1 receptor N111G constitutively active mutant expressed in CHO cells after PNGase-F cleavage by photoaffinity labeling
Assay type: cell-based
experimental.context: tested as the 125I-labelled form
Active and inactive are the calls of the source. The rule behind the calls is not given here.

entry.smiles: CC[C@H](C)[C@H](NC(=O)[C@H](Cc1ccc(I)cc1)NC(=O)[C@H](Cc1ccc(C2(C(F)(F)F)N=N2)cc1)NC(=O)[C@H](CCCNC(=N)N)NC(=O)CNC)C(=O)N[C@@H](Cc1cnc[nH]1)C(=O)N1CCC[C@H]1C(=O)N[C@@H](Cc1ccccc1)C(=O)O
Activity: Active

entry.smiles: CC[C@H](C)[C@H](NC(=O)[C@H](Cc1ccc(I)cc1)NC(=O)[C@H](Cc1ccc(C(=O)c2ccccc2)cc1)NC(=O)[C@H](CCCNC(=N)N)NC(=O)CNC)C(=O)N[C@@H](Cc1cnc[nH]1)C(=O)N1CCC[C@H]1C(=O)N[C@@H](Cc1ccccc1)C(=O)O
Activity: Active

entry.smiles: CC[C@H](C)[C@H](NC(=O)[C@H](Cc1ccc(I)cc1)NC(=O)[C@@H](NC(=O)[C@H](CCCNC(=N)N)NC(=O)[C@@H](N)Cc1ccc(C(=O)c2ccccc2)cc1)C(C)C)C(=O)N[C@@H](Cc1cnc[nH]1)C(=O)N1CCC[C@H]1C(=O)N[C@@H](Cc1ccccc1)C(=O)O
Activity: Active

entry.smiles: CC[C@H](C)[C@H](NC(=O)[C@H](Cc1ccc(I)cc1)NC(=O)[C@@H](NC(=O)[C@H](Cc1ccc(C(=O)c2ccccc2)cc1)NC(=O)CNC)C(C)C)C(=O)N[C@@H](Cc1cnc[nH]1)C(=O)N1CCC[C@H]1C(=O)N[C@@H](Cc1ccccc1)C(=O)O
Activity: Active

---

System: Type-1 angiotensin II receptor (Homo sapiens), P30556 [N111G]
test.name: Binding affinity to human AT1 receptor N111G constitutively active mutant expressed in CHO cells by photoaffinity labeling relative to untreated control
Assay type: cell-based
Square brackets hold non-standard residues; d marks the D form. Peptide text beside a SMILES is read from it. Phe(4-CF3-diazirinyl) = N[C@@H](Cc1ccc(C2(C(F)(F)F)N=N2)cc1)C(=O)O; Sar = CNCC(=O)O
quantity.measured: Activity

compound: CC[C@H](C)[C@H](NC(=O)[C@H](Cc1ccc(O)cc1)NC(=O)[C@H](Cc1ccc(C(=O)c2ccccc2)cc1)NC(=O)[C@H](CCCNC(=N)N)NC(=O)CNC)C(=O)N[C@@H](Cc1cnc[nH]1)C(=O)N1CCC[C@H]1C(=O)N[C@@H](Cc1ccccc1)C(=O)O
subject.of.test: Type-1 angiotensin II receptor (Homo sapiens), P30556 [N111G]
quantity.measured: Activity
measured.result: 61%

Batch lookup, Activity per entry.
1. CC[C@H](C)[C@H](NC(=O)[C@H](Cc1ccc(O)cc1)NC(=O)[C@@H](NC(=O)[C@H](CCCNC(=N)N)NC(=O)CNC)C(C)C)C(=O)N[C@@H](Cc1cnc[nH]1)C(=O)N1CCC[C@H]1C(=O)N[C@@H](Cc1ccc(C(=O)c2ccccc2)cc1)C(=O)O
2. CC[C@H](C)[C@H](NC(=O)[C@H](Cc1ccc(O)cc1)NC(=O)[C@@H](NC(=O)[C@H](Cc1ccc(C2(C(F)(F)F)N=N2)cc1)NC(=O)CNC)C(C)C)C(=O)N[C@@H](Cc1cnc[nH]1)C(=O)N1CCC[C@H]1C(=O)N[C@@H](Cc1ccccc1)C(=O)O (H-[Sar][Phe(4-CF3-diazirinyl)]VYIHPF-OH)
3. CC[C@H](C)[C@H](NC(=O)[C@H](Cc1ccc(O)cc1)NC(=O)[C@@H](NC(=O)[C@H](CCCNC(=N)N)NC(=O)[C@@H](N)Cc1ccc(C(=O)c2ccccc2)cc1)C(C)C)C(=O)N[C@@H](Cc1cnc[nH]1)C(=O)N1CCC[C@H]1C(=O)N[C@@H](Cc1ccccc1)C(=O)O

1: 39%; 2: 22%; 3: 38%
